Recorded values, source PubChem BioAssay (NCATS).

experiment: qHTS Assay for Lipid Storage Modulators (AID 1519); details: Drosophila S3 cells, BODIPY lipid droplet/cell ratio, laser cytometry; at 57.5 µM (top of the series); cells loaded with oleic acid; on activity change, negative = inhibition: on the % scale 0 is the no-effect control and ±100 the full control effect
Records with an inconclusive call do not appear.
assay.metric: activity change, negative = inhibition (%)
Answers are plain numbers, in %.

* O=C(c1ccco1)N1CCC2(CC1)CCN(c1cccc(-c3ccccc3)c1)CC2 | 5.77
* CNc1cc(-c2c(C)noc2C)ncn1 | 4.96
* CCNc1ncc2nc(-c3cn(C)c4ccccc34)c(=O)n(C)c2n1 | 8.66
* Cc1noc(C)c1C(=O)N1CCC2(CCN(C(=O)NC(C)C)CC2)CC1 | 4.44
* CN1CCN(c2ncc3ncc(=O)n(C[C@H]4CCCO4)c3n2)CC1 | 6.86
* COc1ccc(NC(=O)N2CC[C@@]3(CCCN(C(=O)c4csnn4)C3)C2)cc1 | 5.36

Batch: activity change, negative = inhibition for all items listed.
1. Cc1nc2cnc(Nc3ccccc3)nc2n(CCC#N)c1=O
2. O=C(c1cccc(F)c1)N1CCC2(CCCN(c3ncccn3)C2)CC1
3. CN(Cc1ccco1)c1ncnc2ccc(-c3cccnc3)cc12
4. COc1ccc(C(=O)N2CCC3(CCCN(Cc4ccncc4)C3)CC2)cc1
5. COc1ccccc1CNc1ncncc1-c1cccc(C#N)c1
6. CC(C)NC(=O)N1CCC2(CC1)CCN(C(=O)c1csnn1)CC2

1. -7.58
2. 3.73
3. 2.3
4. 3.4
5. 6.39
6. 1.46

----------
I'd be grateful if you could share measured max response for these entries.
test: qHTS Assay for Lipid Storage Modulators (AID 1519); settings: Drosophila S3 cells, BODIPY lipid droplet/cell ratio, laser cytometry; measured here: lipid channel max response; cells loaded with oleic acid
Inconclusive results are not listed.
Put your answer as a value accompanied by its unit after it.

* O=C(Nc1ccccc1)N1CCC2(CC1)CCN(S(=O)(=O)c1ccccc1)CC2 | 7.34%

Batch: max response for all items listed.
1. COC(=O)N1CCC2(CCN(C(=O)Nc3ccccc3)CC2)CC1
2. COc1ccc(-c2nc3cnc(Oc4cccc(Cl)c4)nc3n(CCC#N)c2=O)cc1
3. CN(C)c1ccc(-c2nc(N(C)Cc3ccco3)c3ccccc3n2)cc1

1. 17.4%
2. 14.8%
3. 11.3%

Entry COc1ccc(Oc2ncc3nc(-c4cccs4)c(=O)n(CCC#N)c3n2)cc1 has what max response? 10.8%

----------
molecular target: Dual specificity protein kinase CLK4 (Homo sapiens) (UniProt Q9HAZ1); test: qHTS Assay for Inhibitors of CDC-like Kinase 4 (ADP-Glo Assay) (AID 1771); settings: recombinant CLK4, ADP-Glo luminescence; series mostly up to 80 µM; further: nearly all actives have a fitted effect of over 70% in size
Sequence (Q9HAZ1 whole entry, looked up): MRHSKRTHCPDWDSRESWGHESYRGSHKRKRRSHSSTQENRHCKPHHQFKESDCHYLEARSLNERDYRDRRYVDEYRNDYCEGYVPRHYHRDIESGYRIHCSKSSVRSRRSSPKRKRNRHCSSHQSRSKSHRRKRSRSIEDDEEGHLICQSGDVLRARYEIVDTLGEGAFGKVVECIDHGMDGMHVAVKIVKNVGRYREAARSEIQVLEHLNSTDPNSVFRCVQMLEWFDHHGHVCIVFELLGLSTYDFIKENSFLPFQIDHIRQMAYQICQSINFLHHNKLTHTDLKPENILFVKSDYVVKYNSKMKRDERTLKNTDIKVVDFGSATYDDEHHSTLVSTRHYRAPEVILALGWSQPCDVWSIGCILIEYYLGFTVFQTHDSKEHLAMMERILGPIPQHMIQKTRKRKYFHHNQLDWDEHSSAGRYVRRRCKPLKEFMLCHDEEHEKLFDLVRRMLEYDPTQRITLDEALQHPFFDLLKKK
Records with an inconclusive call do not appear. The source made the active and inactive calls. Calls come from the whole dose curve; as a rule, active = well fitted inhibition curve with a large enough effect; inconclusive = small, poorly fitted or top-dose-only effect; inactive = flat fitted curve, though single readings scatter.
Answer with one of the outcomes given here: active, inactive

These recorded examples may help you get a feel for the data.
• c1ccc(CNc2cc(-c3cccnc3)ncn2)cc1 = active
• CN(C)c1ccc(-c2ccc3ncnc(-n4ccnc4)c3c2)cc1 = active
• COc1ccc(-n2c(=O)c(C)nc3cnc(OC)nc32)cc1 = inactive
• COCCNc1nc(-c2ccccc2Cl)nc2ccccc12 = active
• Cc1nc2cnc(OCc3ccccc3)nc2n(C)c1=O = inactive
• Cn1c(=O)c(-c2ccc(Cl)cc2)nc2cnc(Nc3ccccc3)nc21 = inactive
• COCCn1c(=O)cnc2cnc(Oc3ccccc3)nc21 = inactive
• COc1ccccc1-c1cncnc1NCCNC(C)=O = inactive
• COCCn1c(=O)cnc2cnc(OC)nc21 = inactive
• COc1cccc(Nc2ncc3nc(CCc4ccccc4)c(=O)n(C)c3n2)c1 = inactive

// return assay outcome for Cc1cccc(CNc2cc(-c3c(C)noc3C)ncn2)c1 active

// return assay outcome for CS(=O)(=O)Nc1cccc(-c2cncnc2Nc2ccc(F)cc2)c1 active

----------
system: N140; experiment: qHTS profiling for inhibitors of Plasmodium falciparum proliferation (AID 504749); further: nearly all actives have a fitted effect of over 60% in size; settings: P. falciparum in erythrocytes, SYBR Green DNA, 72 h; series mostly up to 28.7 µM
Results filed as inconclusive are left out. Activity calls are given as the source filed them. Calls come from the whole dose curve; as a rule, active = well fitted inhibition curve with a large enough effect; inconclusive = small, poorly fitted or top-dose-only effect; inactive = flat fitted curve, though single readings scatter.
Answer with one of the outcomes given here: true for active, false for inactive

• C[C@@]12C(=O)OC(=O)[C@]1(C)[C@H]1CC[C@@H]2O1 = true

// return assay outcome for C=C1/C(=C\C=C2/CCC[C@]3(C)[C@@H]([C@H](C)CCCC(C)(C)O)CC[C@@H]23)C[C@@H](O)C[C@@H]1O false

// return assay outcome for Oc1ccc(/C=C\c2cc(O)cc(O)c2)cc1 false

// return assay outcome for C[C@@H]1[C@H](O)[C@@H](C)/C=C/C=C/C=C/C=C/C=C/C=C/C=C/[C@H](O[C@@H]2O[C@H](C)[C@@H](O)[C@H](N)[C@@H]2O)C[C@@H]2O[C@](O)(C[C@@H](O)C[C@@H](O)[C@H](O)CC[C@@H](O)C[C@@H](O)CC(=O)O[C@H]1C)C[C@H](O)[C@H]2C(=O)O false

// return assay outcome for CC(C)C[C@H]1C(=O)N2CCCC2[C@]2(O)O[C@](NC(=O)[C@@H]3C=C4c5cccc6[nH]c(Br)c(c56)C[C@H]4N(C)C3)(C(C)C)C(=O)N12 (stereo partly drawn) true

// return assay outcome for COc1cc2c(cc1OC)C(c1ccccc1)CN(C)CC2 (stereo not drawn) false

// return assay outcome for CN1C(=O)CCC1c1cccnc1 (stereo not drawn) false

// return assay outcome for N[C@H](Cc1ccc(O)c(O)c1)C(=O)O false

----------
assay: qHTS Assay for Lipid Storage Modulators (AID 1519); settings: Drosophila S3 cells, BODIPY lipid droplet/cell ratio, laser cytometry; at 57.5 µM (top of the series); cells loaded with oleic acid; on activity change, negative = inhibition: on the % scale 0 is the no-effect control and ±100 the full control effect
Inconclusive results are not listed.
I'd be grateful if you could share measured activity change, negative = inhibition for these entries.
One number for each entry, in %.

Examples from the recorded data:
• Cn1cccc1C(=O)N1CCC[C@@]2(CCN(c3ccccn3)C2)C1 = 4.31
• CS(=O)(=O)Nc1cccc(-c2cncnc2Nc2ccc(F)cc2)c1 = 8.07
• COC(=O)N1CCC2(CCCN(C(=O)Nc3cccc(F)c3)C2)CC1 = -17.4
• CCNc1ncc2nc(C)c(=O)n(-c3ccc(OC)cc3)c2n1 = 4.59
• Cc1ccccc1-c1cncnc1Nc1ccc(F)cc1 = 6.79
• CN(C)c1ncc2nc(-c3ccc(F)cc3)c(=O)n(C)c2n1 = 8.24

Batch: activity change, negative = inhibition for all items listed.
1. CN(Cc1ccco1)c1ncncc1-c1ccoc1
2. CN(C)C(=O)c1ccc(-c2cncnc2N2CCNCC2)cc1

1. 6.13
2. 5.34

Batch: activity change, negative = inhibition for all items listed.
1. Cc1noc(C)c1-c1nccc(NCc2cccnc2)n1
2. CC(C)CN1CCC2(CC1)CCN(C(=O)c1csnn1)CC2
3. Clc1ccccc1-c1nccc(NCc2cccs2)n1
4. COCCn1c(=O)c(-c2ccc(Cl)cc2)nc2cnc(Oc3cccc(Cl)c3)nc21
5. O=C(c1ccncc1)N1CCC[C@@]2(CCN(c3ncccn3)C2)C1

[4.68, -1.92, 7.3, 4.42, 3.78]

Batch: activity change, negative = inhibition for all items listed.
1. N#Cc1cccc(-c2nc3cnc(Oc4cccc(Cl)c4)nc3n(C3CC3)c2=O)c1
2. COCCNc1ncncc1-c1ccccc1OC
3. CC(C)CN1CC[C@@]2(CCCN(C(=O)c3cnccn3)C2)C1

1: -3.65; 2: 4.36; 3: 3.32

----------
biological target: Cytochrome P450 1A2 (Homo sapiens) (UniProt P05177); assay: p450-cyp1a2 (AID 410); details: recombinant CYP1A2, luciferin-ME demethylation, luminescence; series mostly up to 57 µM; further: potency means the concentration at half of the fitted maximal effect
Sequence (P05177 whole entry, looked up): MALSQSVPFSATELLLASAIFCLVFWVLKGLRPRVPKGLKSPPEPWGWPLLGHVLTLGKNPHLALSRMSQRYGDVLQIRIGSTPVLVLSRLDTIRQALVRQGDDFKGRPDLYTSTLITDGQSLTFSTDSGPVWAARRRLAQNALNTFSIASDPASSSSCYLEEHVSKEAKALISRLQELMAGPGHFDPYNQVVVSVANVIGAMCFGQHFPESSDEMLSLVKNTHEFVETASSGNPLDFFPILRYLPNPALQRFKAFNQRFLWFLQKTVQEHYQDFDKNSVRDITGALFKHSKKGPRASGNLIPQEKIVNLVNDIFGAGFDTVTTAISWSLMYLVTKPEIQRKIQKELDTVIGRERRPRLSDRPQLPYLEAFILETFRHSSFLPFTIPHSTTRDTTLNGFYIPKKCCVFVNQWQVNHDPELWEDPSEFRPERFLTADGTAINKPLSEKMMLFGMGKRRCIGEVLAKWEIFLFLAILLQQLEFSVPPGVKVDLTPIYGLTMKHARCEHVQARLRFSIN
Records with an inconclusive call do not appear. Calls of active or inactive are those of the source. Calls come from the whole dose curve.
assay.metric: Potency

Examples from the recorded data:
- Cc1nc2cnc(N3CCN(C)CC3)nc2n(Cc2ccc(F)cc2)c1=O: inactive
- CN1CCN(c2ncc3nc(CCc4ccccc4)c(=O)n(C4CC4)c3n2)CC1: 12.6 µM (active)
- O=C(Nc1cccc(F)c1)N1CC[C@@]2(CCCN(C(=O)c3cccc(F)c3)C2)C1: 12.6 µM (active)
- CN(Cc1ccco1)c1cc(-c2ccoc2)ncn1: inactive
- O=C(Oc1ccccc1)N1CCC2(CCCN(c3ccccc3)C2)CC1: 15.8 µM (active)

Batch: Potency for all items listed.
1. COc1ccccc1-c1cncnc1NCCc1cnc[nH]1
2. Cc1cccc(CNc2ncnc3ccc(-c4cccc(C#N)c4)cc23)c1
3. CC(C)CN1CC[C@@]2(CCCN(C(=O)c3csnn3)C2)C1
4. O=C(c1cnccn1)N1CCC[C@@]2(CCN(c3ccccc3)C2)C1
5. CN1CC[C@@]2(CCCN(C(=O)c3cccc(F)c3)C2)C1
6. c1cncc(-c2cncnc2-n2ccnc2)c1
7. CCNc1ncc2nc(-c3ccccc3)c(=O)n(Cc3cccs3)c2n1

1. 1.26 µM (active)
2. 0.631 µM (active)
3. inactive
4. 15.8 µM (active)
5. inactive
6. 20 µM (active)
7. 0.316 µM (active)

Batch: Potency for all items listed.
1. N#CCCn1c(=O)c(-c2cc(F)cc(F)c2)nc2cnc(OCc3ccccc3)nc21
2. O=c1c(-c2ccccc2)nc2cnc(N3CCNCC3)nc2n1C1CC1
3. CN(C)Cc1ccccc1-c1cc(NC2CC2)ncn1
4. CC(C)CN(C)c1nc(N)c(C(=O)N=C(N)N)nc1Cl

6.31 µM (active)
3.98 µM (active)
12.6 µM (active)
0.794 µM (active)

Batch: Potency for all items listed.
1. Cc1noc(C)c1C(=O)N1CCC2(CC1)CN(c1ccccc1)C2
2. Fc1ccc(Nc2ncncc2-c2ccccc2C(F)(F)F)cc1
3. NCCCCNS(=O)(=O)c1cccc2c(Cl)cccc12
4. COc1cccc(-c2ccc3ncnc(N4CCN(C)CC4)c3c2)c1

1. inactive
2. 20 µM (active)
3. 15.8 µM (active)
4. 3.98 µM (active)

Batch: Potency for all items listed.
1. COCC(=O)N1CCC2(CCCN(C(=O)Nc3ccc(OC)cc3)C2)CC1
2. CCNc1ncc2nc(-c3cc(F)cc(F)c3)c(=O)n(C[C@H]3CCCO3)c2n1
3. COc1ccc(C(=O)N2CCC[C@@]3(CCN(C(=O)Nc4ccccc4)C3)C2)cc1
4. COCCn1c(=O)c(-c2cccs2)nc2cnc(N(C)C)nc21
5. Cc1ccccc1-c1cc(NCCN2CCOCC2)ncn1

["inactive", "3.16 µM (active)", "15.8 µM (active)", "2 µM (active)", "31.6 µM (active)"]
